Test: Absorption and emission spectra (photophysical properties)
Assay type: physicochemical
Conditions: 10 μM solutions
// NB: equality with 20000 M⁻¹ cm⁻¹ counts as f; only εmax strictly below is t

The examples below pair each entry with its known result.
COC(=O)c1c(C(=O)OCCCNC(=O)CCCOc2cc(I)c(OC)cc2CC(C)N)c2cc(F)c(F)cc2c2cc(F)c(F)cc12 (stereo not drawn) [12e]
t
COc1cc(CC(C)N)c(OCCCC(=O)NCCCNS(=O)(=O)c2cccc3c(N(C)C)cccc23)cc1I (stereo not drawn) [10a]
t
CCCCCCC(CCCCCC)N1C(=O)c2ccc3c4ccc5c6c(ccc(c7ccc(c2c37)C1=O)c64)C(=O)N(CCCNC(=O)CCCOc1cc(I)c(OC)cc1CC(C)N)C5=O (stereo not drawn) [12h]
f

Query :: Does the reported εmax of COC(=O)c1c(C(=O)OCCCNC(=O)CCCOc2cc(I)c(OC)cc2CC(C)N)c2cc3c(cc2c2cc4c(cc12)CCC4)CCC3 (stereo not drawn) [12f] stay below 20000 M⁻¹ cm⁻¹?
Result :: t

Query :: Does the reported εmax of COC(=O)c1c(C(=O)OCCCNC(=O)CCCOc2cc(I)c(OC)cc2CC(C)N)c2ccccc2c2ccccc12 (stereo not drawn) [12d] stay below 20000 M⁻¹ cm⁻¹?
Result :: t

Query :: Does the reported εmax of CCN(CC)c1ccc2c(-c3ccccc3C(=O)NCCC(=O)NCCC(=O)NCCCOCCOCCOCCCNC(=O)CCCOc3cc(I)c(OC)cc3CC(C)N)c3ccc(=[N+](CC)CC)cc-3oc2c1 (stereo not drawn) [12i] stay below 20000 M⁻¹ cm⁻¹?
Result :: f

Query :: Does the reported εmax of COC(=O)c1c(C(=O)OCCCNC(=O)CCCOc2cc(I)c(OC)cc2CC(C)N)c2cc3ccccc3cc2c2cc3ccccc3cc12 (stereo not drawn) [12g] stay below 20000 M⁻¹ cm⁻¹?
Result :: t

Query :: Does the reported εmax of COc1cc(CC(C)N)c(OCCCC(=O)NCCCN2C(=O)c3c(c4ccccc4c4ccccc34)C2=O)cc1I (stereo not drawn) [12c] stay below 20000 M⁻¹ cm⁻¹?
Result :: t

Query :: Does the reported εmax of COc1cc(CC(C)N)c(OCCCC(=O)NCCCNc2ccc([N+](=O)[O-])c3nonc23)cc1I (stereo not drawn) [12b] stay below 20000 M⁻¹ cm⁻¹?
Result :: f

###

Catalogue of compounds with associated λmax Abs
Experiment: Absorption and emission spectra (photophysical properties)
Type: physicochemical
Conditions: 10 μM solutions
Write the number in nm without appending the unit.

Completed entries (count: 5):
COC(=O)c1c(C(=O)OCCCNC(=O)CCCOc2cc(I)c(OC)cc2CC(C)N)c2cc(F)c(F)cc2c2cc(F)c(F)cc12 (stereo not drawn) [12e]
315
COC(=O)c1c(C(=O)OCCCNC(=O)CCCOc2cc(I)c(OC)cc2CC(C)N)c2cc3c(cc2c2cc4c(cc12)CCC4)CCC3 (stereo not drawn) [12f]
309
COc1cc(CC(C)N)c(OCCCC(=O)NCCCN2C(=O)c3c(c4ccccc4c4ccccc34)C2=O)cc1I (stereo not drawn) [12c]
390
COC(=O)c1c(C(=O)OCCCNC(=O)CCCOc2cc(I)c(OC)cc2CC(C)N)c2ccccc2c2ccccc12 (stereo not drawn) [12d]
305
COc1cc(CC(C)N)c(OCCCC(=O)NCCCNS(=O)(=O)c2cccc3c(N(C)C)cccc23)cc1I (stereo not drawn) [10a]
350

Query :: Recorded λmax Abs of COc1cc(CC(C)N)c(OCCCC(=O)NCCCNc2ccc([N+](=O)[O-])c3nonc23)cc1I (stereo not drawn) [12b] , please.
Result :: 461

Query :: Recorded λmax Abs of CCCCCCC(CCCCCC)N1C(=O)c2ccc3c4ccc5c6c(ccc(c7ccc(c2c37)C1=O)c64)C(=O)N(CCCNC(=O)CCCOc1cc(I)c(OC)cc1CC(C)N)C5=O (stereo not drawn) [12h] , please.
Result :: 460

Query :: Recorded λmax Abs of CCN(CC)c1ccc2c(-c3ccccc3C(=O)NCCC(=O)NCCC(=O)NCCCOCCOCCOCCCNC(=O)CCCOc3cc(I)c(OC)cc3CC(C)N)c3ccc(=[N+](CC)CC)cc-3oc2c1 (stereo not drawn) [12i] , please.
Result :: 555

Query :: Recorded λmax Abs of COC(=O)c1c(C(=O)OCCCNC(=O)CCCOc2cc(I)c(OC)cc2CC(C)N)c2cc3ccccc3cc2c2cc3ccccc3cc12 (stereo not drawn) [12g] , please.
Result :: 375
